Value source: PubChem BioAssay AID651650

- Tested Target: Neuropilin-1 (Homo sapiens)
- Experiment Notes: NRP-1 b1b2 CendR peptide binding inhibitors, dose response, biochemical, FP and AlphaScreen panel (AID 651650)
- Measurement Setup: NRP-1 b1b2 / RPARPAR peptide binding, FP or AlphaScreen; AlphaScreen, mean of runs
Active and inactive are the calls of the source.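 The calls were made as follows: active = mean IC50 below 20 µM in each of the two panels, so potent in both; inactive = the rest.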
Observable: IC50

Study these solved cases before continuing.
- COc1cccc(N2[C@@H](CC(C)=O)c3ccc(/C=C/C(C)=O)cc3S2(=O)=O)c1: > 100 µM (inactive)
- CC(C)C[C@@H](COc1ccccc1)N1CCN(CCc2ccccc2)CCC1=O: > 100 µM (inactive)
- CC(=O)c1cccc(S(=O)(=O)N2CCC(C(=O)O)(c3ccccc3)CC2)c1: > 100 µM (inactive)
- CN(Cc1ccccc1)C(=O)c1nc[nH]c1C(=O)N1CCN(C(=O)OC(C)(C)C)CC1: > 100 µM (inactive)
- O=C1CSC(c2cn(-c3ccccc3)nc2-c2cccs2)N1CC1CCCO1 (stereo not given): inactive

IN: Give IC50 for Cc1nn(-c2ccccc2)c(C)c1C(=O)OCC(=O)Nc1ccccc1
OUT: > 100 µM (inactive)

IN: Give IC50 for C=CCOc1ccc(C2/C(=C(\O)c3c(C)[nH]c(C(=O)OC)c3C)C(=O)C(=O)N2CCN(C)C)cc1 (stereo not given)
OUT: > 100 µM (inactive)

IN: Give IC50 for COc1ccc(N(CC(=O)NCc2ccco2)C(=O)CCC(=O)Nc2ccccn2)cc1
OUT: > 100 µM (inactive)

IN: Give IC50 for O=C(NCCOC(=O)c1ccccc1)c1ccccc1
OUT: inactive

IN: Give IC50 for N=C1C(=O)OCC1c1cc(Cl)ccc1NC(=O)Nc1ccccc1 (stereo not given)
OUT: inactive

###

- Tested Target: Neuropilin-1 (Homo sapiens)
- Experiment Notes: NRP-1 b1b2 CendR peptide binding inhibitors, dose response, biochemical, FP and AlphaScreen panel (AID 651650)
- Measurement Setup: NRP-1 b1b2 / RPARPAR peptide binding, FP or AlphaScreen; AlphaScreen, run 1; individual panel run IC50
Observable: IC50

- COc1c2ccc(C(=O)NCc3cc(C(F)(F)F)cc(C(F)(F)F)c3)cc2nn1C: > 100 µM
- Cc1ccccc1Nc1nc(N)nc(COC(=O)CC2CC3CCC2C3)n1 (stereo unspecified): > 100 µM
- Cc1ccc(C(=O)NCCCc2ccccc2)c(C)c1: > 100 µM
- COc1ccc(N(CC(=O)NCc2ccco2)C(=O)CCC(=O)Nc2ccccn2)cc1: > 100 µM
- CC(=O)C(=Cc1ccc(Cl)cc1)C(=O)c1ccccc1: > 100 µM

IN: Give IC50 for O=c1[nH]c(Nc2ccccn2)cc2ccccc12
OUT: 19.6 µM

IN: Give IC50 for CCOC(=O)N1CCN(C(=O)c2cc3n(n2)C(C(F)(F)F)CC(c2ccc4c(c2)OCO4)N3)CC1 (stereo unspecified)
OUT: > 100 µM

IN: Give IC50 for O=C(NCc1ccccc1)c1ccc(N2CCC3(CC2)CC(c2ccc(Cl)cc2)=NO3)c([N+](=O)[O-])c1
OUT: 22 µM

IN: Give IC50 for O=C(O)c1ccccc1SCC(=O)N1CCCCC1
OUT: > 100 µM

IN: Give IC50 for COc1ccc(C2CC(O)(c3ccccc3)Oc3cc(OC)ccc32)cc1 (stereo unspecified)
OUT: > 100 µM

IN: Give IC50 for COc1ccc(NC(=O)CN(C)CC(=O)Nc2cccc(F)c2)cc1Cl
OUT: 35.5 µM

IN: Give IC50 for CSc1cccc(CN2CCN(Cc3ccccc3)C(CCO)C2)c1 (stereo unspecified)
OUT: > 100 µM

IN: Give IC50 for Cc1ccc(NC=C(S(=O)(=O)c2ccccc2)S(=O)(=O)c2ccccc2)cc1
OUT: > 100 µM

IN: Give IC50 for CN(C)CCn1c(=O)n(-c2ccc(F)cc2)c(=O)c2c3c(sc21)CCCCC3
OUT: 44.2 µM

IN: Give IC50 for Cc1ccc(N(C(=O)c2ccc(CN3CCOCC3)o2)C(C(=O)NCCC(C)C)c2cccs2)c(C)c1 (stereo unspecified)
OUT: > 100 µM

IN: Give IC50 for C=CCN1C(=O)C2(C(C(=O)OCC)=C(N)Oc3ccccc32)c2c1c1ccccc1oc2=O (stereo unspecified)
OUT: > 100 µM

IN: Give IC50 for NC(=O)C(c1ccc(Cl)cc1Cl)c1ncc(C(F)(F)F)cc1Cl (stereo unspecified)
OUT: > 100 µM

IN: Give IC50 for COC(=O)CCCC1=CC2=CC(=O)C(C)(OC(=O)c3cccs3)C(=O)C2=CN1CCCOC(C)C (stereo unspecified)
OUT: 5.63 µM

IN: Give IC50 for CC(=O)NCCNc1nc(NC(C)C)nc2ccsc12
OUT: > 100 µM

IN: Give IC50 for O=C(CCCNC(=O)/C(=C\c1ccc(F)cc1)NC(=O)c1ccccc1)OCc1ccccc1
OUT: > 100 µM

IN: Give IC50 for CSCCC(NC(=O)c1ccc(Cl)cc1Cl)C(=O)NCC(c1cccs1)N(C)C (stereo unspecified)
OUT: > 100 µM

###

- Tested Target: Neuropilin-1 (Homo sapiens)
- Experiment Notes: NRP-1 b1b2 CendR peptide binding inhibitors, dose response, biochemical, FP and AlphaScreen panel (AID 651650)
- Measurement Setup: NRP-1 b1b2 / RPARPAR peptide binding, FP or AlphaScreen; AlphaScreen, mean of runs
The source made the active and inactive calls.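 Rule for the calls: active = mean IC50 below 20 µM in each of the two panels, so potent in both; inactive = the rest.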
Observable: IC50

Study these solved cases before continuing.
- Cc1cc(N/C(=N/S(=O)(=O)c2cc(F)ccc2F)c2ccccc2)n(-c2ccccc2)n1: > 100 µM (inactive)
- Cc1ccc(COn2c(-c3ccc(Cl)cc3Cl)nc3ncccc32)cc1: > 100 µM (inactive)
- Cc1c(NP(=O)(C(C)(C)C)C(C)(C)C)c(=O)n(-c2ccccc2)n1C: > 100 µM (inactive)
- CNC(=O)NC(=O)C(C)OC(=O)c1c(C)noc1C (stereo unspecified): inactive
- C=C[C@]12CC[C@H](OC(C)=O)CC1=CCC1C2CC[C@@]2(C)C1CCC21OCCO1 (stereo partly specified): > 100 µM (inactive)
- CCc1ccccc1NC(=O)c1ccccc1N1C(=O)C2C3C=CC(C3)C2C1=O (stereo unspecified): inactive

Proceeding to the next compound to report its IC50.
IN: Give IC50 for COc1ccc(C(=O)N2CCC(C(=O)NCc3ccccn3)CC2)cc1
OUT: > 100 µM (inactive)

###

- Tested Target: Neuropilin-1 (Homo sapiens)
- Experiment Notes: NRP-1 b1b2 CendR peptide binding inhibitors, dose response, biochemical, FP and AlphaScreen panel (AID 651650)
- Measurement Setup: NRP-1 b1b2 / RPARPAR peptide binding, FP or AlphaScreen; FP, run 2; individual panel run IC50
pIC50: −log10 of the molar value.
Observable: pIC50

- O=c1c2ccccc2nc2n1C(CSc1ccc(F)cc1)CS2 (configuration not stated): < 4.02
- Cc1cc2cc(CNC(=O)c3ccco3)ccc2n1C: < 4.02
- CC(C)(C)N(NC(=O)Nc1ccc(Cl)cc1)C(=O)c1ccccc1: < 4.02
- O=C1CCCN1CCCNc1nc(NCc2cccs2)nc2ccsc12: < 4.02

IN: Give pIC50 for CCc1ccc(OC(=O)CN2C(=O)c3ccccc3C2=O)cc1
OUT: < 4.02

IN: Give pIC50 for Nc1ccc(C(=O)Nc2ccc(Nc3ccncc3)cc2)c([N+](=O)[O-])c1
OUT: < 4.02

IN: Give pIC50 for CN(C)CCn1c(=O)n(-c2ccc(F)cc2)c(=O)c2c3c(sc21)CCCCC3
OUT: < 4.02

IN: Give pIC50 for CC(=O)OC[C@@H]1CN(Cc2cccc(C(F)(F)F)c2)C[C@H](n2cnc3c(NCc4ccco4)ncnc32)O1
OUT: < 4.02

IN: Give pIC50 for COC(=O)C1=C(c2cccc(C#N)c2)C[C@@H]2CC[C@H]1N2C(=O)NCCO
OUT: < 4.02

IN: Give pIC50 for CC(C)(C)n1nc(-c2ccc(F)cc2)c2c(N)ncnc21
OUT: < 4.02

IN: Give pIC50 for CC(=O)NC(c1cccc(F)c1)c1nc(-c2cccc(C(F)(F)F)c2)cs1 (configuration not stated)
OUT: < 4.02

IN: Give pIC50 for Cc1ccc(COn2c(-c3ccc(Cl)cc3Cl)nc3ncccc32)cc1
OUT: < 4.02

IN: Give pIC50 for COc1ccc(NC(=O)CN2CCN(c3c(C)cc(C)cc3C)CC2)cc1
OUT: < 4.02

###

IC50 for assorted compounds
- Tested Target: Neuropilin-1 (Homo sapiens) (UniProt O14786)
- Sequence (O14786 whole entry, looked up): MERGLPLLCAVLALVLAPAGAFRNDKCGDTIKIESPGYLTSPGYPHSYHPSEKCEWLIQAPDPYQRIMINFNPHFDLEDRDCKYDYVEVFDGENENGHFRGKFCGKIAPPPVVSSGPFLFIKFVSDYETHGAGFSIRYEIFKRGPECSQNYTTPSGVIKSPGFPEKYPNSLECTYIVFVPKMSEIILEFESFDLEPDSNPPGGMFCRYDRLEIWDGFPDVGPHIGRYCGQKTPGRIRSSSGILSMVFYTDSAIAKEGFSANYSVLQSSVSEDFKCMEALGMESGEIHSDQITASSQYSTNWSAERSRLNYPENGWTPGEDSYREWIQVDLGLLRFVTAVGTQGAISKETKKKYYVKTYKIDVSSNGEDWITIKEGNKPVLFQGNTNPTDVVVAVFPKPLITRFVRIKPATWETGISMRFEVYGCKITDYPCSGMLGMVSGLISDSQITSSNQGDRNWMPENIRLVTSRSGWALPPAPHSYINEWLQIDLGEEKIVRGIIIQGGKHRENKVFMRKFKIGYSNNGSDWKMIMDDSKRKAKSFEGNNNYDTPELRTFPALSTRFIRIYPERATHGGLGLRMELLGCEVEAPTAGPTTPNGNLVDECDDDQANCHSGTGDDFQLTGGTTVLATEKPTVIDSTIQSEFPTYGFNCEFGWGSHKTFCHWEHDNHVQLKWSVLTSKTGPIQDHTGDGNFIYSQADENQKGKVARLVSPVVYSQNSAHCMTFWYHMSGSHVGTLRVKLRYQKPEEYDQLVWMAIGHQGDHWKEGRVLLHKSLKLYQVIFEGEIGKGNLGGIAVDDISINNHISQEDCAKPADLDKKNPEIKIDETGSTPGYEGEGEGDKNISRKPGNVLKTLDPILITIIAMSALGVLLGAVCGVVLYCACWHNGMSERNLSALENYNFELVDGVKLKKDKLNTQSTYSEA
- Experiment Notes: NRP-1 b1b2 CendR peptide binding inhibitors, dose response, biochemical, FP and AlphaScreen panel (AID 651650)
- Measurement Setup: NRP-1 b1b2 / RPARPAR peptide binding, FP or AlphaScreen; AlphaScreen, run 1; individual panel run IC50

Study these solved cases before continuing.
- CC(NCCOCCOc1ccccc1)c1ccccc1 (stereo unspecified): > 100 µM
- CCc1cc(C(=O)OC)c(NC(=O)c2ccoc2C)s1: > 100 µM
- CN(C)Cc1cc(C(F)(F)F)ccc1C(O)(c1ccccc1)c1ccccc1: > 100 µM
- O=C(NCCOC(=O)c1ccccc1)c1ccccc1: 45.3 µM
- CC(Nc1ccc2ccccc2c1)C(=O)N/N=C/c1ccncc1 (stereo unspecified): > 100 µM

Proceeding to the next compound to report its IC50.
IN: Give IC50 for Cc1ccc(Cn2nnnc2CN2CCC(n3nnc4ccccc43)CC2)cc1
OUT: > 100 µM
